testedSystem: Human DR5 (Homo sapiens, UniProt O14763)
protocolText: Binding affinity of antibody to human DR5 (BIAcore, CM5 chip)
conditionSet: equilibrium dissociation constant, Human DR5
measurementKind: Kd (nM)

molecule	unitName	reading
DA33: humanized or deimmunized variant of parental clone D0; CDRs SEQ ID NO 1, 2, 7 / 4, 10, 13 (antibody, V domains shown) VH: AVTLDESGGGLQTPGGGLSLVCKGSGFTFSSFNMLWVRQAPGKGLEWVAGIGKSDRYTGYGSAVKGRATISRDDGQSTARLQLNNLRAEDTAVYYCVKDAGSGCGSGGWTGACIDTWGHGTEVIVSS VL: LTQPSSVSANLGGTVEITCSGGDSYAGSYYYGWYQQKAPGSAPVTVIYNNNNRPSNIPSRFSGSTSGSTATLTITGVQAEDEATYFCGSRDSSYVGIFGAGTTLTVL	nM	0.0788

Measured values drawn from patent US11840574B2 for this set.
